Measured IC50 values are reported for all entries that follow.
Biological target: human CTPS1 (Homo sapiens (Human))
Sequence (P17812 whole entry): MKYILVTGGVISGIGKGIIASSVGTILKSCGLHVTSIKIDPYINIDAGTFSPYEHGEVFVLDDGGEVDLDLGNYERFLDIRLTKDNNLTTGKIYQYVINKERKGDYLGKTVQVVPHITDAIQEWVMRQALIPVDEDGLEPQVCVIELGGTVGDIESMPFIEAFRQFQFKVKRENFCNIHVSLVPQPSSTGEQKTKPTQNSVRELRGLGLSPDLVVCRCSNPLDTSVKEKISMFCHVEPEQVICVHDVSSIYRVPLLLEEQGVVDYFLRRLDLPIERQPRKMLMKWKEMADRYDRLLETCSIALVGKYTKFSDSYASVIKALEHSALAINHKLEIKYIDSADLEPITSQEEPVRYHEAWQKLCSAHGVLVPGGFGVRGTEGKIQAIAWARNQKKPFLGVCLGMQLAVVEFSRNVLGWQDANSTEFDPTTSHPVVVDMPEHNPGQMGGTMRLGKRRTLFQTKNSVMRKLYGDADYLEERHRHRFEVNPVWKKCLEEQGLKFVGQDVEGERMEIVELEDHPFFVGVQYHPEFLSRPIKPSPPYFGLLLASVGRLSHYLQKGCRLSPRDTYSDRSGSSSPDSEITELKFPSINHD
Assay: hCTPS1 biochemical assay (ADP-Glo)
Conditions: hCTPS1 25 nM, ATP 120 uM, UTP 160 uM, GTP 60 uM, L-Glutamine 100 uM, 25 degrees C
parameter: IC50

| smiles | parameter | measured_result |
| --- | --- | --- |
| CCOc1cncc(-c2ccc(C(=O)NC3(c4cccc(NS(=O)(=O)C(F)F)c4)CC3)c(F)c2)n1 | IC50 | < 0.1 µM |
| CCOc1cncc(-c2nnc(C(=O)NCc3cc(NS(=O)(=O)C4CC4)ccn3)o2)n1 | IC50 | ≥ 1 µM |
| CCOc1cncc(-c2cnc(C(=O)N[C@@H](C)c3cccc(NS(=O)(=O)C(F)F)c3)s2)n1 | IC50 | < 0.1 µM |
| CCOc1cncc(-c2cnc(C(=O)NCc3cc(NS(=O)(=O)C4CC4)ccn3)o2)n1 | IC50 | ≥ 1 µM |

Attribution: patent US12331046B2
